Taken from patent US9834518B2.

Target: BAF3 EGFR DEL T790M PURO POOL (Homo sapiens, UniProt P00533, DEL746-750/T790M, cells depend on it)
Sequence (P00533 with tags, fused parts or gaps DEL746-750/T790M): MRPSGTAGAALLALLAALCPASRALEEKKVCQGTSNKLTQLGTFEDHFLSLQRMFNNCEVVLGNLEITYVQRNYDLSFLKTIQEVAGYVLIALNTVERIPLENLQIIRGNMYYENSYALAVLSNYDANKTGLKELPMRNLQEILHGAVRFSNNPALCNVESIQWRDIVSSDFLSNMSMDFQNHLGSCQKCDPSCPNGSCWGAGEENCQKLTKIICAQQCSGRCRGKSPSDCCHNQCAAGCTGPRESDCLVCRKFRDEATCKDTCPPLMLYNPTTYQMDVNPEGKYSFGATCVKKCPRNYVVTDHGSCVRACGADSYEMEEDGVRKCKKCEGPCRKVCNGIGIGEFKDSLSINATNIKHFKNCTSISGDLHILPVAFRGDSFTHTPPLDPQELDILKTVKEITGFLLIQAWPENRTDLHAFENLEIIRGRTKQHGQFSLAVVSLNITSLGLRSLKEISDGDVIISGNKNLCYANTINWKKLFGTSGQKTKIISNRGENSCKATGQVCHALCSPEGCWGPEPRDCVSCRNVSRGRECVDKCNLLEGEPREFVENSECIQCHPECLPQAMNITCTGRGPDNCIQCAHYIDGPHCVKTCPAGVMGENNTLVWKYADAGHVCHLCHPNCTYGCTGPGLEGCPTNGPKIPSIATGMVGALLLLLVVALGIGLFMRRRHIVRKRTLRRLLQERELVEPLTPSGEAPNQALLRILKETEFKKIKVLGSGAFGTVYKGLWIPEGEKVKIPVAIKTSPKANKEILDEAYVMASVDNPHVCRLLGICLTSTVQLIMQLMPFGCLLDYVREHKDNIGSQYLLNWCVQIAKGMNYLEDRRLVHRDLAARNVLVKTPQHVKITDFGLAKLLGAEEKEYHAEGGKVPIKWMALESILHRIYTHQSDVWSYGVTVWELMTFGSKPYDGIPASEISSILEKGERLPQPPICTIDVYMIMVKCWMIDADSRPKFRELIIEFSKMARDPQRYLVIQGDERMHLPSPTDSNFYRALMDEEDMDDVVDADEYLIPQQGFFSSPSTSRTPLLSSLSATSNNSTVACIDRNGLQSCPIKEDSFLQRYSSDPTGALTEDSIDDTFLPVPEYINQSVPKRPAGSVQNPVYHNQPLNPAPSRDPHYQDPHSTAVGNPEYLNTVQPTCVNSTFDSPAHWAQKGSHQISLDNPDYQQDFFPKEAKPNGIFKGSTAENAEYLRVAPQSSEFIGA
Assay: Cell proliferation (MTT), BAF3 EGFR DEL T790M
Assay type: cell-based
Entries annotated with measured IC50

Guide cases for IC50, answers given:
>  <compound>
COc1ccc(NC(=O)C2CO2)cc1Nc1ncc(Cl)c(Nc2ccccc2P(C)(C)=O)n1 (stereo not drawn)

>  <observed_measurement>
< 51 nM

$$$$
>  <compound>
COc1cc(P(C)(C)=O)ccc1Nc1ncc(Cl)c(Oc2cccc(NC(=O)/C=C/CN(C)C)c2)n1

>  <observed_measurement>
≥ 250 nM

$$$$
>  <compound>
C=CC(=O)Nc1cc(Nc2ncc(Cl)c(Nc3ccccc3P(C)(C)=O)n2)c(OC)cc1OC1CCOC1 (stereo not drawn)

>  <observed_measurement>
≥ 250 nM

$$$$
>  <compound>
C=CC(=O)Nc1cc(Nc2ncc(Cl)c(Nc3ccccc3P(C)(C)=O)n2)c(OC)cc1N(C)CCCN(C)C

>  <observed_measurement>
< 51 nM

$$$$

Look up IC50 for this compound: `COc1ccc(NC(=O)/C=C/CN2CCN(C)CC2)cc1Nc1ncc(Cl)c(Nc2ccccc2P(C)(C)=O)n1` ≥ 250 nM

Now give it for `C=CC(=O)Nc1cc(Nc2ncc(Cl)c(Nc3ccccc3P(C)(C)=O)n2)c(OC)cc1OCCN(C)CCOC` too. < 51 nM

Also check `C=CC(=O)Nc1cc(Nc2ncc(Cl)c(Nc3cccc(C)c3P(=O)(CC)CC)n2)c(OC)cc1F` < 51 nM

Thanks! And `C=CC(=O)Nc1ccc(OC)c(Nc2ncc(Cl)c(Nc3ccc(F)cc3P(C)(C)=O)n2)c1` ? < 51 nM

Then what about the compound `C=CC(=O)Nc1ccc(OC)c(Nc2ncc(Cl)c(Nc3ccccc3P(=O)(CC)CC)n2)c1` ? < 51 nM

----------
Target: human EGFR (native sequence) (Homo sapiens, UniProt P00533)
Sequence (P00533 25-1210): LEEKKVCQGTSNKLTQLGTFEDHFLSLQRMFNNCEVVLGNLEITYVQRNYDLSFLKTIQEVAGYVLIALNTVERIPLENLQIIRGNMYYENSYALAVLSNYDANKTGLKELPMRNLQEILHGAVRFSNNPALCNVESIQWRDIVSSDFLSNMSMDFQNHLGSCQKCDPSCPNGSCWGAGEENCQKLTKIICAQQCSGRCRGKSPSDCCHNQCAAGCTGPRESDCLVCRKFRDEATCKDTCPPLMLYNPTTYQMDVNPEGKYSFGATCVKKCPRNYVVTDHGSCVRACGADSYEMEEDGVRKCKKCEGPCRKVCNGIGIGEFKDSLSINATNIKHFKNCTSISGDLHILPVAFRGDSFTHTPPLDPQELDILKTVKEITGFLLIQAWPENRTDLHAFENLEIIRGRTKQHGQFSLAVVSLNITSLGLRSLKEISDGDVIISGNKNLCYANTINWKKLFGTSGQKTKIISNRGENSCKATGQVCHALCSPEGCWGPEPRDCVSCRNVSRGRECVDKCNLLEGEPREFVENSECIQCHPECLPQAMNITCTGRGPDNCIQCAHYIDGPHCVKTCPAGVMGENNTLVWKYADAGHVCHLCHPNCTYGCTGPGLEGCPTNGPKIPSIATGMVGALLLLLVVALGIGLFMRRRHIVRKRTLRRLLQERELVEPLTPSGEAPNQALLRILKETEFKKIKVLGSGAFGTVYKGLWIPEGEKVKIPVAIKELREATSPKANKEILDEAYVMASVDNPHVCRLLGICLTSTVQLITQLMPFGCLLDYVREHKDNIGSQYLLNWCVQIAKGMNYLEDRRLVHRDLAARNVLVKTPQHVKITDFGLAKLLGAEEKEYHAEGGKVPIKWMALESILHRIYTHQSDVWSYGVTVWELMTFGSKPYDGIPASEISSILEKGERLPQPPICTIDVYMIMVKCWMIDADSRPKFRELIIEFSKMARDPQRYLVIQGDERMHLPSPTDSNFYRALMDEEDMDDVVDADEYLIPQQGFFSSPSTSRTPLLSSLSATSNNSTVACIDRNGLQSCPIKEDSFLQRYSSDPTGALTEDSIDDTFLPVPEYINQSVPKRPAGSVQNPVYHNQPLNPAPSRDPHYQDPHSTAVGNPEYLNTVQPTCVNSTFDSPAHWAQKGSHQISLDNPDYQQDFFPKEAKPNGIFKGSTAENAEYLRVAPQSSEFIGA
Experiment: Kinase inhibition, human EGFR (native sequence)
Assay type: biochemical
Details: 10 μM ATP; 10 pt curves, 3 μM top concentration (singlicates)
quantity_name: IC50

Which IC50 reading was recorded for the molecule `COc1ccc(NC(=O)/C=C/CN2CCN(C)CC2)cc1Nc1ncc(Cl)c(Nc2ccccc2P(C)(C)=O)n1` ? ≥ 250 nM

Next entry: C=CC(=O)N[C@H]1CCC[C@@H](Nc2ncc(Cl)c(Nc3ccccc3P(C)(C)=O)n2)C1 (stereo in doubt) ≥ 250 nM

Now this one: COc1ccc(NC(=O)C2(C)CO2)cc1Nc1ncc(Cl)c(Nc2ccccc2P(C)(C)=O)n1 (stereo not shown) < 51 nM

Same question for `C=CC(=O)Nc1cc(Nc2ncc(Cl)c(Nc3ccccc3P(C)(C)=O)n2)c(OC)cc1N1CCOCC1` please. ≥ 250 nM

Now give it for `CC#CC(=O)Nc1ccc(OC)c(Nc2ncc(Cl)c(Nc3ccccc3P(C)(C)=O)n2)c1` too. ≥ 250 nM

What do you have for `C=CC(=O)Nc1cc(Nc2ncc(Cl)c(Nc3ccccc3P(C)(C)=O)n2)c(OC)cc1OCCOC` ? ≥ 250 nM

Try `C=CC(=O)Nc1cc(Nc2ncc(Cl)c(Nc3ccccc3P(=O)(CC)CC)n2)c(OC)cc1F` next. < 51 nM

----------
Molecular target: EGFR bearing the L858R/T790M double mutation (Homo sapiens, UniProt P00533, L858R/T790M)
Sequence (P00533 25-1210 T790M/L858R): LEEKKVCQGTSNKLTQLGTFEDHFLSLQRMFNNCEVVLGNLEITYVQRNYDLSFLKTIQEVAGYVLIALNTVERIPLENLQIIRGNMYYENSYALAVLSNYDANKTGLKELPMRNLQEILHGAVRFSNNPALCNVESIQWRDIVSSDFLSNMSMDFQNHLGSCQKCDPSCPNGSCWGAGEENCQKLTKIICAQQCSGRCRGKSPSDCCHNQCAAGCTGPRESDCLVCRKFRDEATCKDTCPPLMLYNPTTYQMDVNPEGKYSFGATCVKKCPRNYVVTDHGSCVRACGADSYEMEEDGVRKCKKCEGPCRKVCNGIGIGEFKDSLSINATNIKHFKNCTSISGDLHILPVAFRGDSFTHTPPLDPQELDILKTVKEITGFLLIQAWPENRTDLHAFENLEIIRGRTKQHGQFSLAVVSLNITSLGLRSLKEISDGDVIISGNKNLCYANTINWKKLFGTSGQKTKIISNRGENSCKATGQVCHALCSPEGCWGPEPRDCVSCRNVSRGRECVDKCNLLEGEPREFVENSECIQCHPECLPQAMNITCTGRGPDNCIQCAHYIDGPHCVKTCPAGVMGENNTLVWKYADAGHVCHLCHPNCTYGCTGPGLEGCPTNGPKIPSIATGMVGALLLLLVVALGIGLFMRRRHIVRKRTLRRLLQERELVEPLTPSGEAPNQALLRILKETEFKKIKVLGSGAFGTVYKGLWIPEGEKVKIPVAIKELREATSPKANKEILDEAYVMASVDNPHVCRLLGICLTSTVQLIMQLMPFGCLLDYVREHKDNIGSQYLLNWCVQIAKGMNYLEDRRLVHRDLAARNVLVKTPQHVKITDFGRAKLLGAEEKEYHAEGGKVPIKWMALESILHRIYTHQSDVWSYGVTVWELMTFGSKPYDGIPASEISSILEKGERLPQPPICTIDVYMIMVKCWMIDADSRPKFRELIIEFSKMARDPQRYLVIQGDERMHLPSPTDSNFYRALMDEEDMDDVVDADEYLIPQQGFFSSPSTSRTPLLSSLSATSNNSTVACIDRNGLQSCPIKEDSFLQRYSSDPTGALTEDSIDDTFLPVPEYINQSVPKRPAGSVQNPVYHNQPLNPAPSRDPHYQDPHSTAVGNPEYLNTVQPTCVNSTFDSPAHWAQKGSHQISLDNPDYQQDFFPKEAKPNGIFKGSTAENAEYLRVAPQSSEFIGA
Assay: Kinase inhibition, EGFR L858R/T790M
Type: biochemical
Settings: 10 μM ATP; 10 pt curves, 3 μM top concentration (singlicates)
quantity_name: IC50

Some molecules with recorded IC50:
>  <molecule>
COc1cc(N2CCOCC2)c(NC(=O)C2CO2)cc1Nc1ncc(Cl)c(Nc2ccccc2P(C)(C)=O)n1 (stereo not shown)

>  <IC50>
< 51 nM

$$$$
>  <molecule>
C=CC(=O)Nc1cc(Nc2ncc(Cl)c(Nc3ccccc3P(C)(C)=O)n2)c(OC)cc1F

>  <IC50>
< 51 nM

$$$$

Need IC50 of `C=CC(=O)N(C)c1ccc(OC)c(Nc2ncc(Cl)c(Nc3ccccc3P(C)(C)=O)n2)c1` , thanks. < 51 nM

Same read-out for `COc1ccc(NC(=O)/C=C/CN2CCOCC2)cc1Nc1ncc(Cl)c(Nc2ccccc2P(C)(C)=O)n1` ? 51 to 100 nM
